- tgt: MKP1 (Homo sapiens, UniProt P28562)
- Construct: GST (N); made in house; host or cells: DH5a bacteria
- Sequence (P28562 whole entry, species assumed): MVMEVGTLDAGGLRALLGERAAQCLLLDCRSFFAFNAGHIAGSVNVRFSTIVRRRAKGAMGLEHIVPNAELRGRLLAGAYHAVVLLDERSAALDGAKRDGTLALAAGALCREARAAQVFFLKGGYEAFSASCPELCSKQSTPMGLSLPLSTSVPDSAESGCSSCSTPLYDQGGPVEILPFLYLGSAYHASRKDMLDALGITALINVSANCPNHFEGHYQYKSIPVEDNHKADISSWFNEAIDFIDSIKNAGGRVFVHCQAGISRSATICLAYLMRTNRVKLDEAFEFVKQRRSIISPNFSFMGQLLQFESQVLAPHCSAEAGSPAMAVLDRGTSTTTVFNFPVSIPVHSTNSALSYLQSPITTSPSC
- test details: In vitro PTPase assay, GST/MKP1
- Type: biochemical
measured endpoint: inhibition of MKP1

>>> reported_value("N=C(N)c1ccc(OCCCCCOc2ccc(C(=N)N)cc2)cc1 [pentamidine]")
"substantial inhibition"
>>> reported_value("CC(=O)N1CCN(c2ccc(OCC3COC(Cn4ccnc4)(c4ccc(Cl)cc4Cl)O3)cc2)CC1 (stereo not shown) [ketoconazole]")
"substantial inhibition"
>>> reported_value("c1ccc([C@H]2CN3CCSC3=N2)cc1 [levamisole]")
"substantial inhibition"
